Experiment: soluble on expression in E. coli; label from the status in PepcDB or PDB records
Measurement Type: soluble on expression in E. coli

Reference set (5 entries):
Sequence Record	soluble on expression in E. coli
ATDTLANEDCFRHESLVPNLDYERFRGSWIIAAGTSEALTQYKCWIDRFSYDDALVSKYTDSQGKNRTTIRGRTKFEGNKFTIDYNDKGKAFSAPYSVLATDYENYAIVEGCPAAANGHVIYVQLRMTLRRFHPKLGDKEMLQHYTLDQVNQNKKAIEEDLKHFNLKYEDLHSTCH	soluble
MGSDKIHHHHHHMLQPFLASADTFTQQHFANRHAILLKYPQSSAVTFAAAVWENSFHANALYFDVVGDVAWLPQLLEDLRQLADHHDRLQYSSYAAQSAVITQLQAKHFRAFRRTAMSDYRKVVATPEADVRSRSQLTSAQWHDVVQMSFANYVAAHADNPVTFNHATFEQQLAEAEDTQPSFLVENQQVQAYVFWFEDEPGALTSAWLGGQQFADIRRLLQTALFQVQARYSVVNGEFDDTDIHAWTVYQQLALPDPNPLISWQLLLDATRMP	not soluble
MYVQLSQRLKDVATYVPKGAKLLDVGSDHAYLPIYLLEKGLITSAIAGEVVKGPYESALANVSASGFNDKIDVRLANGLAAFEPYDAVTTITICGMGGRLIADILDAGKDKLKDVDRLILQPNNREDDLRIWLMENGFTIVAEAIMTEN	not soluble
MTINMALHYPNYFAALVPQATAYSYYQYERNNDGTYKMIEDKNSISGKSSIRTNKIWFDSQKVKTLKNIPIWFIHSAADKVVNPKTYSLPIYKSLLDSGAKNKWFSYYDNVQGKDLKDTTYNGHWSWVYFFNNQVSSVQDVKTIKKSSKLSGFKPSNKSKGGAATAKEGKKSYNNVFDWLNDQKK	not soluble
MGSDKIHHHHHHMYYRKRFCVGRNNERRMKAMARDTGLDHLGAMRAFVRVVEMGSFSAVAKEMHVSTSTVARKITAIEEALGVALLHRSTHSVTLTEAGHIYLERAVTLIADLDDTLRVVAELNAQPSGPLKLTAPVAFGRRHLAPLIAPFLARYPTIQLDVRLTDNHNDLVAGGYDLDIHEGENYLDNLVVHRLSRNDSILCATPGYLDRCGRPATPDDLLHHNCLRYVHPEGDPRWELVRGDARHSVLPAGNLVTDHSELLLEATCAGLGIAEFEIWLVRDLLASGRLEAVLPRYRLHNKLTGEHIYIAYLANRRSSAKLRVLKDFLADQLAHIGELSEVELMKIRDAGA	not soluble

// lookup soluble on expression in E. coli for `MSLGNSFRQGANAYFDYVNTQGGIYGRALELLTYDDKYEPKLTESNVRHLIDKEGVFALMGTIGTPTAMAAIPVALEEQIPFLMPLSGARFLREPFNRLIFNLRPSYFEEIEAISSYLTEERGFKRIAIFYQNDSFGIEGLEGLTQSLDKRGLKIVAEGIYPRNTLSVSDAVYAIHPKSPEAIVMVGTYEASALFIQRYKELNPASPPLFVNISFVAATALAEALQGNMRQVLVSNVTPSPWDISNPLVREYHRLYVESMGHPPCFLSFEGFLSAKIIVEALHKTGPILSHKRFIKAMENLSPDFLSDLKLRFSATNHQAFEQVFITGYENGRFVTLKSYEGHHHHHH` not soluble

Now the same for `MAHHHHHHMHQLRTFNYVASELGHDEPVLHAVFVTHRCLPPDPPEVNFTTAIPQTVTAASRRTSSDDASIGAAVHVEKTVVLSVEDTLAAPLEVALTVEQELAQLSKKLDAWKVQRLADLQARGGERSPSRLAQMEAAMERRLALRRIEEQDRAQKRVDALLSYLGPRIDKQLQLVAREHDGEEALSSSYARVETTSDVKDSACADKSAASAATPSPPSPRARILCDQQYFVKRQEIALEERGARQAVLRNMWDARRLAHLVEDEVSFRHSIEAREVVWRDRVHSELRASVEMDHV` not soluble

Now the same for `MPSGYGVLLATHDDDTVDVFTSGRKMRLTCSPNIDAASLKKGQTVRLNEALTVVEAGTFEAVGEISTLREILADGHRALVVGHADEERVVWLADPLIAEDLPDGLPEALNDDTRPRKLRPGDSLLVDTKAGYAFERIPKAEVEDLVLEELVPR` soluble

Now the same for `MGSDKIHHHHHHMELDDAYANGAYIEGAADYPPRWAASAEDFRNSLQDRARLNLSYGEGDRHKFDLFLPEGTPVGLFVFVHGGYWMAFDKSSWSHLAVGALSKGWAVAMPSYELCPEVRISEITQQISQAVTAAAKEIDGPIVLAGHSAGGHLVARMLDPEVLPEAVGARIRNVVPISPLSDLRPLLRTSMNEKFKMDADAAIAESPVEMQNRYDAKVTVWVGGAERPAFLDQAIWLVEAWDADHVIAFEKHHFNVIEPLADPESDLVAVITA` not soluble
